Numbers sourced from patent US12617777B2.

Exercise: state measured inhibition at 10 µM for each of the compounds provided.
biological target: human GPR84 receptor (Homo sapiens, UniProt Q9NQS5); construct: host or cells: HEK293, transient transfection; experiment: Gαi biosensor BRET assay in HEK293 cells (antagonism of ZQ-16); format: cell-based; settings: HEK293, single concentration 10 μM (designated F)
Sequence (Q9NQS5 whole entry): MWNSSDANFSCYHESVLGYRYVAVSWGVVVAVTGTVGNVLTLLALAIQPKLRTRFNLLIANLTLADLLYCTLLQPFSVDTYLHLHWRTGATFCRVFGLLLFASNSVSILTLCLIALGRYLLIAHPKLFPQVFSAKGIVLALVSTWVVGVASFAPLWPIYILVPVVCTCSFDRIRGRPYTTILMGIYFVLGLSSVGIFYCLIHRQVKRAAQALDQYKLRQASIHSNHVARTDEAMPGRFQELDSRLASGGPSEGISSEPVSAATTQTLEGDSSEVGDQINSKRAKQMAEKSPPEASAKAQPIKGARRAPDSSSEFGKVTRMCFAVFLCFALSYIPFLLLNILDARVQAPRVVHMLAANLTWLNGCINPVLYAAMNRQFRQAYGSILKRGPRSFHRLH

[
  {
    "compound": "Cc1cc(C#CC2CC2)ccc1-c1cn(CC2OCc3ccccc32)nn1 (stereo not shown) [Compound I-100]",
    "inhibition at 10 µM": "≤ 25%"
  },
  {
    "compound": "c1ccc(COc2ccc3c(c2)CCc2cn(CC4CCCCO4)nc2-3)cc1 (single isomer, unassigned) [Compound I-330]",
    "inhibition at 10 µM": "≤ 25%"
  },
  {
    "compound": "Cc1cc(N2CC(F)C2)ccc1-c1cn(CC2CCCCO2)nn1 (stereo not shown) [Compound I-529]",
    "inhibition at 10 µM": "≤ 25%"
  }
]

Now consider the entry below.
Fill in the blank: the reported inhibition at 10 µM of COC(=O)N1CCC(c2ccc(-c3cn(CC4CCCCO4)nn3)c(C)c2)CC1 (stereo not shown) [Compound I-484] is ____. ≤ 25%

###

target: human GPR84 receptor (Homo sapiens); construct: host or cells: HEK293, transient transfection; test: Gαi biosensor BRET assay in HEK293 cells (antagonism of ZQ-16); type: cell-based; conditions: HEK293, single concentration 10 μM (designated F)
recorded endpoint: inhibition at 10 µM

Please go through the list and note inhibition at 10 µM for each molecule.
1. Cc1cc(C#CC2CC2)cnc1-c1cn(CC2CC(C)(C)O2)nn1 (centres unmarked)
2. CC(=O)N1CCN(c2ccc(-c3cn(CC4CCCCO4)nn3)c(C)c2)CC1 (centres unmarked)
3. Cc1cc(C#CC2CC2)cc(F)c1-c1cn(CC2CCCCO2)nn1 (centres unmarked)
4. Cc1ccc(C#CC2CC2)cc1[S+]([O-])c1cn(CC2OCC(C)(C)CO2)nn1 (racemic)
5. C(#CC1CC1)c1ccc2c(c1)CCn1nc(OC[C@H]3COCCO3)cc1-2 (stereo in doubt)
6. CC1(C)CN(c2ccc(-c3cn(CC4CCCCO4)nn3)c(F)c2)C1 (centres unmarked)
7. CNC1(C)CN(c2ccc(-c3cn(CC4CCCCO4)nn3)c(C)c2)C1 (centres unmarked)
8. Cc1ccc(C#CC2CC2)cc1Cc1nnnn1CC1CCCCO1 (centres unmarked)

1: 50 to 75%; 2: ≤ 25%; 3: > 75%; 4: > 75%; 5: ≤ 25%; 6: > 75%; 7: 50 to 75%; 8: 25 to 50%

###

biological target: human GPR84 receptor (Homo sapiens, UniProt Q9NQS5); construct: host or cells: HEK293, transient transfection; test: Gαi biosensor BRET assay in HEK293 cells (antagonism of ZQ-16); type: cell-based; details: HEK293, single concentration 10 μM (designated F)
Exercise: state measured inhibition at 10 µM for each of the compounds provided.

Examples with answers:
[
  {
    "compound": "Cc1ccccc1-c1cn(CC#Cc2ccc(-c3cn(CC4CCCCO4)nn3)c(C)c2)nn1 (stereo not drawn) [Compound I-488]",
    "inhibition at 10 µM": "50 to 75%"
  },
  {
    "compound": "Cc1noc(COc2ccc(-c3cn(CC4CCCCO4)nn3)c(C)c2)n1 (stereo not drawn) [Compound I-469]",
    "inhibition at 10 µM": "≤ 25%"
  },
  {
    "compound": "Cc1ccccc1-c1cn(CC2CCCCO2)nn1 (stereo not drawn) [Compound I-467]",
    "inhibition at 10 µM": "≤ 25%"
  },
  {
    "compound": "CC(=O)N1CCOC(Cn2cc(-c3ccc(C#CC4CC4)cc3C)nn2)C1 (stereo not drawn) [Compound I-96]",
    "inhibition at 10 µM": "≤ 25%"
  }
]

Please go through the list and note inhibition at 10 µM for each compound.
1. Cc1cc(C#CC2CC2)ccc1-c1cn(CCOC(C)(C)C)nn1 [Compound I-98]
2. Cc1cc(N2CC(C)(N(C)C)C2)ccc1-c1cn(CC2CCCCO2)nn1 (stereo not drawn) [Compound I-470]

≤ 25%
≤ 25%

Please go through the list and note inhibition at 10 µM for each compound.
1. CN(C)c1cc(N2CC(C)(CO)C2)ccc1-c1cn(CC2OCC(F)(F)CO2)nn1 [Compound I-729]
2. Cc1cc(C#CCNc2ccccc2)ccc1-c1cn(CCOc2cccnc2)nn1 [Compound I-136]
3. CC(C)Oc1cc(C#CC2CC2)cnc1-c1cn(Cc2ncccn2)nn1 [Compound I-502]
4. Cc1cc(C(=O)Nc2cc[nH]n2)ccc1-c1cn(CC2CCCCO2)nn1 (stereo not drawn) [Compound I-559]
5. CN(C)c1cc(C#CCN2CC(C)(C)C2)c(F)cc1-c1cn(CC2OCC3(CCC3)O2)nn1 (stereo not drawn) [Compound I-821]

1: > 75%; 2: ≤ 25%; 3: > 75%; 4: ≤ 25%; 5: > 75%

Please go through the list and note inhibition at 10 µM for each compound.
1. Cc1ccc(C#CC2CC2)cc1-c1noc(CC2CCCCO2)n1 (stereo not drawn) [Compound I-625]
2. CC(=O)c1cc(C#CC2CC2)ccc1-c1cn(CC2CCCCO2)nn1 (stereo not drawn) [Compound I-124]

50 to 75%
25 to 50%
